- System: A498 renal
- Assay Notes: NCI-60 one-dose screen, 48 h (100 = growth as untreated, 0 = no growth, -100 = all killed)
- Test Conditions: 10 µM unless noted
About 83,000 compounds went through this panel and 20% of them were active in at least one assay; those are over-represented in the sample as a whole.
Range-based classes on measured growth: range 1 = under 60%, range 2 = from 60% up to 90%, range 3 = 90% and over

| Compound | Qualitative Label |
| --- | --- |
| O=C(/C=C/c1ccc([N+](=O)[O-])cc1)c1ccccc1 | range 3 |
| O=C(Nc1ncc(Cc2cccc(C(F)(F)F)c2)s1)c1ccc(-n2cnnn2)cc1 | range 1 |
| CC(=NCc1ccccc1)c1ccc(O)cc1O | range 3 |
| O=C(Nc1ccc(F)cc1)c1cc2cc(Nc3nc(-c4ccccc4)nc4ccccc34)ccc2oc1=O | range 3 |
| CCN1C(=S)N(CC)C2C1NC(=S)N2/N=C/C=C/c1ccccc1 (stereo not given) | range 1 |
| CCOC(=O)C(=Cc1ccc(C#N)cc1)C(=O)OCC | range 2 |
| CCNC(=S)n1nc(SC)c(C(=O)OCC)c1N | range 3 |
| O=C(c1cccc(Br)c1)N1CCN(c2ccnc3cc(Cl)ccc23)CC1 | range 1 |
| COc1cc(-c2nc(SCCC(C)C)nc(Nc3ccc(F)cc3)c2C#N)cc(OC)c1OC | range 2 |
| CCCCC1COc2cccc3c2N1C=C/C3=C\C(=O)N(C)c1cccc(Cl)c1 (stereo not given) | range 3 |
| COCCn1cc(-c2nc(-c3cn(CCOC)c4ncccc34)cs2)c2ccccc21 | range 3 |
| CCOC(=O)c1cc2c(n1Cc1cc(OC)cc(OC)c1Br)-c1nc(NC(C)=O)sc1CCC2 | range 1 |
| CCOc1ccccc1NC(=O)c1cc2ccccc2cc1O | range 1 |
| O=C([C@H]1C[C@H]1c1ccc(S(F)(F)(F)(F)F)cc1)N1CCN(c2cc(Cl)ccc2C(F)(F)F)CC1 | range 3 |
| Cc1cccc(-c2nnc(SCC(=O)Nc3ncc(Cc4ccccc4)s3)n2N2C(=O)CSC2=S)c1 | range 2 |
| COc1ccc(C2=C(CN)C(O)NC(=NCC(=O)c3ccc4ccccc4c3)N2)cc1 (stereo not given) | range 3 |

---

- Tested on: ACHN renal
- Assay Notes: NCI-60 one-dose screen, 48 h (100 = growth as untreated, 0 = no growth, -100 = all killed)
- Test Conditions: 10 µM unless noted
This is part of a sample that, as a whole, favours compounds with a hit. Of some 83,000 tested, about 20% had one in any assay.
Assay Metric: growth (%)

| Compound | Observed Value |
| --- | --- |
| O=C(/C=C/C12c3ccccc3C(c3ccccc31)C1C(=O)NC(=O)C12)c1ccncc1 (stereo not given) | 23.7 |
| O=C(/C=C/c1cccs1)Nc1ncc(Cc2ccc(Cl)c(Cl)c2)s1 | 36.4 |
| N#CC1=C(N)Oc2c(sc3c(Br)cccc23)C1c1ccccn1 (stereo not given) | 47.3 |
| CCCCC1=C(Br)C(=O)c2nc(C)ccc2C1=O | 57.1 |
| CN1CCCc2cc(/C=C3\SC(=S)N(C(Cc4ccc(O)cc4)C(=O)O)C3=O)ccc21 (stereo not given) | 103 |
| NC1=CC(=O)c2cccnc2C1=O | 5.89 |
| Fc1ccc(NC(c2ccc(F)cc2)C2CCN(CCCCc3ccccc3)CC2)cc1 (stereo not given) | 53.8 |
| CC(C)(C)c1cc(C(C)(C)c2ccccc2)cc(Cc2cc(C(C)(C)c3ccccc3)cc(C(C)(C)C)c2O)c1O | 102 |
| COc1ccc2c(O)c(/C=C3\N=Nc4nc(C)ccc43)oc2c1CC1CCNCC1 | 69.2 |
| BrC1=C(Br)C(Br)(Br)C(Br)=C1Br | 88.5 |
